- assayedTarget: Homeobox protein Hox-A13 (Mus musculus) (UniProt Q62424)
- Sequence (Q62424 whole entry, looked up): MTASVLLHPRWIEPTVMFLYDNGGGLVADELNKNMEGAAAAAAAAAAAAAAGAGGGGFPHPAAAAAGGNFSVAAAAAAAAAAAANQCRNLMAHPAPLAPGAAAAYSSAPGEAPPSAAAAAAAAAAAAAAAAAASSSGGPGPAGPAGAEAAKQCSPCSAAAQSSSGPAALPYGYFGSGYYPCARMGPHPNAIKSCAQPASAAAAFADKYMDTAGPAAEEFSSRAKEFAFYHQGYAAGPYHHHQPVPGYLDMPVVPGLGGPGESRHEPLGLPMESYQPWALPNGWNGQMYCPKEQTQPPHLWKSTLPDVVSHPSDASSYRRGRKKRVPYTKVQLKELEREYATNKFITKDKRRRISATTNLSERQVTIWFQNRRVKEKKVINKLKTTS
- protocolDetails: inhibitors of HoxA13-DNA binding, primary screen, biochemical, fluorescence polarization, labeled oligonucleotide (AID 1185)
- runParameters: 15 min, called active from +8 up or from −8 down
Active and inactive are the calls of the source.
Returns: one label drawn from active, inactive

# input Recorded test outcome, item COc1cc(Cc2cc3c(c(CCc4ccccc4)n2)[Si](C(C)C)(C(C)C)OC3)cc(OC)c1OC
# output inactive

# input What outcome does the record of this test show for CCCCCCc1nc(-c2cc(C)c(OC)c(C)c2)cc2c1[Si](C(C)C)(C(C)C)O[C@H]2c1ccccc1 ?
# output inactive

# input Hi team, can someone confirm the assay call for COCCOC(=O)N1C(=O)[C@@]2(c3ccccc31)[C@H](C(=O)N1CCc3cc(OC)c(OC)cc3C1)[C@H]1C(=O)O[C@H](c3ccccc3)[C@H](c3ccccc3)N1[C@@H]2c1ccccc1OCCO ?
# output inactive

# input Assay outcome for CC(C)CNC(=O)[C@@]1(C)c2ccccc2C(=O)N(Cc2ccc(OC(F)(F)F)cc2)[C@H]1c1ccc(CO)cc1 : what was it?
# output inactive

# input Could you please tell me the result logged for C=CCc1cccc([C@@H]2[C@@H](C)CC[C@H]3C(=O)N4[C@H](c5cccc(CC=C)c5)[C@@H](C)CC[C@H]4C(=O)N23)c1 in this assay?
# output inactive

# input // return assay outcome for CCCC=C(CCC)[C@@H](NS(=O)(=O)c1ccc(-c2ccccc2)cc1)c1ccc(C(=O)OC)cc1
# output inactive

# input Field: outcome | Entry: NC(=O)NCC#Cc1ccc2c(c1)[C@]1(C(=O)N2)[C@H](C(=O)N2CCCCCCC2)[C@H]2C(=O)O[C@H](c3ccccc3)[C@H](c3ccccc3)N2[C@@H]1c1ccccc1OCCO
# output inactive

# input Query: recorded result category for CO[C@H]1O[C@H](CO)[C@@H](OC(=O)CCc2ccccc2)[C@@H]2OC(=O)[C@H](Cc3cccc(Br)c3)C/C=C/C[C@@H](Cc3cccc(Br)c3)C(=O)O[C@@H]12 in this test
# output inactive

# input Please state the recorded outcome for this compound: CN(C)CCCC[C@@H]1NC(=O)[C@@H]2C[C@H](C(=O)O)[C@H](c3ccc(O)cc3)N2C1=O
# output inactive

# input Short answer needed: outcome of this test for CCCC[C@@H]1C[C@H]1[C@@H](NC(=O)c1cccs1)c1ccc(Cl)cc1 ?
# output inactive

# input Recorded test outcome, item C[N+](C)(C)CCCCNC(=O)[C@H]1C[C@H]2C(=O)NCC(=O)N2[C@H]1c1cccc(OCCO)c1
# output inactive

# input Recorded test outcome, item CO[C@H]1COC(=O)[C@@H](Cc2ccccc2)NC(=O)[C@@H](C)COC(=O)CC=C[C@@H]1C
# output inactive

# input Outcome? O=C1O[C@H](c2ccccc2)[C@H](c2ccccc2)N2[C@H]1[C@@H](C(=O)Nc1nc3ccccc3s1)[C@]1(C(=O)Nc3ccc(C#CC4=CCCCC4)cc31)[C@H]2c1ccccc1OCCO
# output active

# input Status in this test for Cc1ccc(S(=O)(=O)c2cc3oc2CC[C@@H](CO)NC(=O)N(C)Cc2cn(nn2)C[C@H](Cc2ccccc2)NC3=O)cc1 ?
# output inactive

# input Field: outcome | Entry: COC(=O)[C@@]1(Cc2ccc(OC)cc2)[C@H]2c3cc(C(=O)N(C)C)n(Cc4ccc(C)c(F)c4F)c3C[C@H]2CN1C(=O)c1ccccc1
# output inactive

# input In this assay, the call recorded for C=C(COC)/C(=C/C[C@@H](OC(=O)c1ccncc1)c1ccc(OCCO)cc1)c1cc(C(=O)OC)ccc1OC was what?
# output inactive

# input Identify the outcome logged in this assay for the compound shown: CO[C@H]1COC(=O)CC=C[C@H](C)[C@@H](OC)COC(=O)CC=C[C@@H]1C
# output inactive

# input Write down the call the test reported for this compound. Item: CC(C)[Si](OCCCNS(=O)(=O)c1ccc(Br)cc1)(C(C)C)C(C)C
# output inactive
